measured_property: melting point

Look at this compound and give its reported melting point. `COc1ccc(C(=O)c2[nH]c(=O)[nH]c2CN(C)C)cc1`
165 to 167 °C

----------
Listed here: items and their measured melting point.

Recorded melting point, per entry:
COC(=O)c1cc(Cl)c(C)c(Cl)c1 : 47.5 to 48.5 °C
O=C(c1ccc(F)cc1)C1CCN(CCCO)CC1 : 107 to 109 °C
COc1ccc(COc2cnc3c(S)cccn3c2=O)cc1 : > 230 °C

Look at this compound and give its reported melting point. `CC(=C1SC(=O)NC1=O)c1ccc(OCCOc2c(-c3ccc(F)cc3)n(C)c3ccccc3c2=O)cc1`
228 to 230 °C

Now consider `Oc1ccc(-c2noc3c(Br)cc(O)cc23)cc1` and answer again.
267 to 270 °C

Now consider `CCCn1c(-c2c(Cl)cccc2Cl)nc(-c2ccncc2)c1-c1ccc(Cl)cc1` and answer again.
220 to 222 °C

Now consider `C=CCNC(=O)Nc1nc2nc(NCCCN3CCN(C)CC3)ncc2cc1-c1c(Cl)cccc1Cl` and answer again.
104 to 108 °C

Now consider `COc1ccc(C2(/C=C/c3cccc(C#N)c3)CCC(=O)CC2)cc1OC1CCCC1` and answer again.
116 to 117 °C

Now consider `Clc1ccc(OC2CCC3(CCNCC3)CC2)cc1` and answer again.
140 to 142 °C

Now consider CN(C)OC(=O)C(C)(c1ccc(OCc2ccc3ccccc3n2)cc1)C1CCCCC1 (stereo not given) and answer again.
98 to 99 °C

----------
Listed here: items and their measured melting point.

CCOC(=O)C1=C(C)NC2=C(C(=O)OC2)C1c1ccccc1[N+](=O)[O-] (stereo not drawn) : 220 to 222 °C

Look at this compound and give its reported melting point. `Cc1ccc(C)c(-c2ccc(C#N)c(C)c2)c1`
96 to 97 °C

Now consider `Cc1cc(O)c2c(C)nn(-c3ccccn3)c2n1` and answer again.
175 to 176 °C

----------
measured_property: melting point

CCn1cc(C(=O)c2sc(NC(=O)c3ccncc3)nc2-c2ccco2)ccc1=O : 295 to 296 °C
CCCOc1ccccc1-c1nc2cc3c(cc2c(=O)[nH]1)NCN3Cc1ccc(OC)cc1 : 130 to 131 °C
COc1ccc2c(c1)Cc1nnc(OC)n1C=C2 : 176 to 177 °C

Look at this compound and give its reported melting point. `CCCCCCCCCCC[C@H](CC(=O)N[C@@H](CO)C(=O)OCc1ccccc1)OC(=O)CCCCCCCC`
52 to 53 °C

Now consider `CCCc1c(OCCCCCOc2ccc3c(=O)cc(C(=O)OC)oc3c2CCC)ccc(C(C)=O)c1O` and answer again.
86 to 87 °C

Now consider `O=C(O)CCON=c1c2nccc3cccc(c32)n2cccc12` and answer again.
250 °C

Now consider `Nc1ccc2c(c1)C(=O)N(c1ccc(C(=O)O)cc1)C2=O` and answer again.
270 to 271 °C

Now consider CCC(C(=O)N(C)C)n1cc(C)c(-c2ccccc2)n1 (configuration not stated) and answer again.
86 to 88 °C

Now consider Cc1c(Br)c2c(c(C)c1NC=O)C(c1ccc(C(C)C)cc1)CO2 (configuration not stated) and answer again.
151 to 152 °C

----------
Listed here: items and their measured melting point.

COc1cc(OC)c2c(C)c(CCCl)c(=O)oc2c1 : 129 to 130 °C

Look at this compound and give its reported melting point. `CNC(=O)CNc1c(C)cccc1C`
52 to 54 °C

Now consider `O=C1C(c2ccccc2)=C(c2ccccc2)C(=O)N1c1ccccc1C(F)(F)F` and answer again.
152 to 153 °C

Now consider `Cc1ccc(C)c2c(OCCNC(=O)OC(C)(C)C)noc12` and answer again.
78 to 79 °C

Now consider `O=C1CCCc2ccc3ccccc3c21` and answer again.
64 to 66 °C

Now consider `C=CCSc1nnc(C(C)(C)C)[nH]1` and answer again.
127 to 130 °C

Now consider `COc1cccc(-c2ccc3c(C(=O)Nc4cccnc4)c(OC)ccc3c2)c1` and answer again.
154 °C

----------
Listed here: items and their measured melting point.

Look at this molecule and give its reported melting point. `Cc1cc(C(N)=O)ccc1NC1CCN(Cc2ccccc2)CC1`
156 to 158 °C

Now consider COc1c(OCCC(NC(=O)OCc2ccccc2)C(=O)O)cc2c(c1OC)C1=C(CCC1)C(=NNC1=CCNCN1)CC2 (racemic) and answer again.
172 °C

Now consider O=C1NC(=O)C2(N1)C(=O)N(Cc1ccc(Cl)c(Cl)c1)c1ccc(Cl)cc12 (stereo not drawn) and answer again.
257 to 259 °C

Now consider `CC(C)(C)c1cc(Br)c(O)c(C=O)c1Cl` and answer again.
103 to 105 °C

Now consider `O=C(CCC(F)(F)F)c1c(O)c2cccnc2n(-c2ccccc2)c1=O` and answer again.
217 to 220 °C

----------
measured_property: melting point

CCOC(=O)c1ncn(-c2nccs2)c1Cl : 128 to 131 °C
Cc1cn(C(C)(C)C(=O)N(C)C)nc1-c1cc(Cl)ccc1Cl : 130 °C
CCCCCCCNC(=O)Nc1c(C(=O)NC2CCN(C(c3ccccc3)c3ccccc3)CC2)cccc1C(C)C : 209 to 212 °C

Look at this molecule and give its reported melting point. `CCCc1c(OCCCCC#N)ccc(C(=O)c2ccccc2OC)c1O`
85 to 86.5 °C

Now consider `CN(C/C=C\c1ccc(Cl)cc1)Cc1cccc2ccccc12` and answer again.
41 to 42 °C

Now consider COc1cccc(C(C[N+](=O)[O-])SC(=S)N(C)C)c1OC(C)=O (stereo unspecified) and answer again.
124 to 126 °C

----------
Listed here: items and their measured melting point.

Recorded melting point, per entry:
CCC1C(=O)CCC(Cc2ccc(OC)cc2)(Cc2ccc(OC)cc2)C1C (configuration not stated) : 106 to 107 °C
C=CCC(C#N)(C#N)Cc1ccc(OCC)cc1 : 84.3 °C
CCN(CC)CCC(=O)Nc1ccc2c(c1)C(=O)c1cc(NC(=O)CCN(CC)CC)ccc1C2=O : 193 °C
Cn1c(CCNC(=O)C(F)(F)F)cc2ccccc21 : 124 to 126 °C

Look at this molecule and give its reported melting point. `O=C(C=Cc1ccccc1)Oc1ccc2ccccc2c1`
99 to 101 °C

Now consider CSC1NC(=O)N(c2ccc(Cl)cc2)C(=O)N1N=C(C)C (configuration not stated) and answer again.
142 to 144 °C

----------
Listed here: items and their measured melting point.

Recorded melting point, per entry:
CN1Cc2c(-c3noc(CCl)n3)ncn2-c2ccc(F)c(Cl)c2C1=O : 215 to 218 °C
CC1CCC(C(=O)Nc2ccccc2)=C2NC=C(C(=O)O)C(=O)N21 (centres undefined) : 200 to 201 °C
CC=CC(C)=C1C(=O)OC(=O)C1c1cc(C)n(-c2ccc(C)cc2)c1C (centres undefined) : 129 °C

Look at this compound and give its reported melting point. Cc1ccc2c(c1)C(=O)C(C#N)C2=O (centres undefined)
176 to 178 °C

----------
Listed here: items and their measured melting point.

Recorded melting point, per entry:
Cc1cccc(N(C=C(C#N)C#N)N=C(C#N)C#N)c1 : 157 to 159 °C
O=C(O)COc1cc2c(-c3ccccc3)csc2c(Cl)c1Cl : 152 to 154 °C
CN(C)Cn1cnc2c1c(=O)n(C)c(=O)n2C : 121 to 123 °C
COc1cc(Nc2c(C#N)cnc3cc(N4CCC(N5CCCC5)CC4)c(OC)cc23)c(Cl)cc1Cl : 225 to 227 °C

Look at this molecule and give its reported melting point. `CCN(CC)CCOc1ccc(CNc2ncc3c(n2)N(C)C(=O)N(c2c(Cl)cccc2Cl)C3)cc1`
137 to 138 °C

----------
Listed here: items and their measured melting point.

Recorded melting point, per entry:
C=CCONC(=O)c1nc(-c2ccc(C#N)cc2)cc(N)c1Cl : 218 to 221 °C
CCN(C1CC(C)(C)Oc2ccc(OCc3ccccc3)cc21)S(C)(=O)=O (stereo unspecified) : 104 to 106 °C
Cc1cn2cc(NC(=O)c3cc4cc(F)ccc4n3Cc3cccc(F)c3)ccc2n1 : 200 to 203 °C

Look at this compound and give its reported melting point. `Cc1cnc(NC(=O)C(C)C)o1`
109 to 110 °C

Now consider COc1ccc(C2Cc3ccccc3N=C(C)N2C)cc1 (stereo unspecified) and answer again.
130 to 132 °C

Now consider COc1cc2c3c(n(Cc4ccccc4)c2cc1OC)CCCC3C(=O)N1CCN(c2ccccc2)CC1 (stereo unspecified) and answer again.
245 to 247 °C

----------
Listed here: items and their measured melting point.

Recorded melting point, per entry:
COc1ccc(C(C#Cc2ccccc2)CNC(=O)C(F)(F)F)cc1OC1CCCC1 (racemic) : 143 to 145 °C
CCCCC(CCCC)C(=O)O[C@H]1C[C@H](O)C=C2C=C[C@H](C)[C@H](CC[C@@H]3C[C@@H](O)CC(=O)O3)[C@H]21 : 143 to 145 °C
CN(C(c1ccccc1)c1ccccc1)S(=O)(=O)CC#N : 104 to 107 °C
CCOc1ccc2c(c1)n(C1CCCCC1)c(=O)n2Cc1ccc(NC(=NC#N)NC)cc1OC : 195 °C
CCOc1ccc2c(c1)cc1n2CCC1 : 101 to 102 °C

Look at this molecule and give its reported melting point. Cc1cccc2c(=O)[nH]c(C3CCC(N(C)C)CC3)nc12 (centres undefined)
181 to 183 °C

Now consider `CCOC(=O)Cc1ccc(-c2ccc(F)cc2F)c(F)c1` and answer again.
50 to 52 °C

Now consider CC(C)N(Cc1ccccc1)CC(O)COc1cccc2[nH]cc(C=O)c12 (centres undefined) and answer again.
107 to 109 °C

Now consider `Cc1c(Cl)cccc1NS(=O)(=O)c1cc(S(=O)(=O)Nc2cccc(Cl)c2C)c2ccccc2c1O` and answer again.
245 to 247 °C

Now consider `C=CCN1C(=O)c2cccc(C)c2Oc2ncccc21` and answer again.
58 to 60 °C

Now consider `CCCc1c(OCCCCCOc2ccc(CCC(=O)O)cc2CCC(=O)O)ccc2c1OCCC2=O` and answer again.
108 to 109 °C

Now consider `CSc1nn2c(Cl)cc(Cl)nc2c1S(=O)(=O)c1ccccc1` and answer again.
193 to 197 °C

Now consider `COc1ccc2c(OCc3cc(OC)c(F)cc3Br)cccc2c1` and answer again.
138 to 142 °C

Now consider `N#Cc1nn(-c2c(Cl)cc(-c3ccc(C(F)(F)F)cc3)cc2Cl)c(N)c1SC(F)(F)F` and answer again.
181 to 184 °C
